Data origin, for the record: ChEMBL document CHEMBL1201861

- System: NOMO-1;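 note: growth inhibition of human NOMO-1 cells measured by a cell viability assay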
- test-details: cells
- Assay type: functional, cell-based, Homo sapiens
- study-conditions: nomo-1
- Description: SANGER: Inhibition of human NOMO-1 cell growth in a cell viability assay.
quantity-kind: pIC50
Please treat pIC50 as minus the base-10 logarithm of the molar concentration.

Task item: Provide value of pIC50 for this record tested with NOMO-1: BLEOMYCIN
Reply: 5.38

====

- Test system: MS-1;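 note: growth inhibition of MS-1 cells, read out by cell viability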
- test-details: cells
- Assay type: functional, cell-based, Homo sapiens
- study-conditions: Homo sapiens, MS-1
- Description: SANGER: Inhibition of human MS-1 cell growth in a cell viability assay.
The compounds listed here are annotated with their IC50.
# unit: nM | format: bare number

As a guide, the following entries are already answered.
COc1cc2ncn(-c3cc(OCc4ccccc4C(F)(F)F)c(C(N)=O)s3)c2cc1OC [GW843682X] = 16
COc1cccc2c1C(=O)c1c(O)c3c(c(O)c1C2=O)C[C@@](O)(C(=O)CO)C[C@@H]3O[C@H]1C[C@H](N)[C@H](O)[C@H](C)O1 [DOXORUBICIN] = 253

Proceeding to the next compound to report its IC50.
Task item: Provide value of IC50 for this record tested with MS-1: Nc1ccn([C@@H]2O[C@H](CO)[C@@H](O)C2(F)F)c(=O)n1 [GEMCITABINE]
Reply: 46.3
